- target or system: Aβ42 (Homo sapiens, UniProt P05067)
- Sequence (P05067 672-713): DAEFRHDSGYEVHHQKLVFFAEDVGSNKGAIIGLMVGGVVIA
- test summary: Th-T (thioflavin-T) assay of Aβ42 aggregation
- Assay type: biochemical
- recorded conditions: compound at 50; reading M49 of time course
test readout: Th-T fluorescence, mean of three wells

> print(dat)
                                   molecule                     target.or.system     val
1  C=C1CCC2C(C)(CCC=C(C)C)C(O)CCC2(C)C1Cc1c(OC)oc(CO)c(C(=O)OC)c1=O (centres unmarked)  Aβ42 (Homo sapiens, UniProt P05067)  0.4637
2  C=C1CC[C@@H]2[C@](C)(CC[C@H]3O[C@H](C=C(C)C)C[C@@]23C)[C@@H]1Cc1c(OC)oc(CO)c(C)c1=O  Aβ42 (Homo sapiens, UniProt P05067)   2.092
3  C=C1CC[C@@H]2[C@](C)(CC[C@H]3O[C@H](C=C(C)C)C[C@@]23C)[C@@H]1Cc1c(OC)oc(CO)c(C(=O)OC)c1=O  Aβ42 (Homo sapiens, UniProt P05067)  0.2127
4  C=C1CCC2C(C)(CCC=C(C)C)C(O)CCC2(C)C1Cc1c(OC)oc(C)c(C(=O)OC)c1=O (centres unmarked)  Aβ42 (Homo sapiens, UniProt P05067)   5.105
5  C=C1CCC2C(C)(CCC=C(C)C)C(O)CCC2(C)C1Cc1c(OC)oc(CO)c(C)c1=O (centres unmarked)  Aβ42 (Homo sapiens, UniProt P05067)   1.481
